Where do these numbers come from? They come from paper PMC3391261.

Molecular target: UniProt O57946
Test: Spectrophotometric titration of PhKAT with PLP (absorbance change at 360 nm, 2-site binding model with hill slopes)
Set-up: species or system Pyrococcus horikoshii OT3
Conditions: 20 µM PhKAT, 25°C, pH 7.5, read-out: Kd2 (dissociation constant for PLP, second binding site)
Quantity: pKd
One number for each entry, as −log10 of the molar value.

I have this compound here, Cc1ncc(COP(=O)(O)O)c(C=O)c1O [PLP, Pyridoxal phosphate] , and I need its recorded pKd.
5.72

---

Biological target: PhKAT (Pyrococcus horikoshii, UniProt O57946)
Sequence (O57946 entry or part of it): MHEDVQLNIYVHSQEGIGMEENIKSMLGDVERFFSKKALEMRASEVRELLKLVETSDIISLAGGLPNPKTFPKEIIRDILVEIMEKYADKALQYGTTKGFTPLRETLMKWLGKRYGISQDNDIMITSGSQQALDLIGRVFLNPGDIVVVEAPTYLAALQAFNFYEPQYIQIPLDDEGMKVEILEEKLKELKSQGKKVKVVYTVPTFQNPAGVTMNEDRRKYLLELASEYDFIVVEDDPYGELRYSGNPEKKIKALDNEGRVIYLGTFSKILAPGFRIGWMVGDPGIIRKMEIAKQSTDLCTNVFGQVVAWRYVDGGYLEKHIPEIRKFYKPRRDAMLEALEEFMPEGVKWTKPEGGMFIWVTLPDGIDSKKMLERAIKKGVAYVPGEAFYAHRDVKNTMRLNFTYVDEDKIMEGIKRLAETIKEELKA
Experiment: Spectrophotometric titration of PhKAT with PLP (absorbance change at 360 nm, 2-site binding model with hill slopes)
Set-up: species or system Pyrococcus horikoshii OT3
Conditions: 20 µM PhKAT, 25°C, pH 7.5, read-out: Kd1 (dissociation constant for PLP, first binding site)
Quantity: Kd
Remember to follow the number with its unit.

Query: Kd; subject: Cc1ncc(COP(=O)(O)O)c(C=O)c1O [PLP, Pyridoxal phosphate]
9.65 µM
